# Tgt: T1, human corticotropin-releasing hormone receptor 1 (CRHR1) (human, UniProt P34998 24-415)
# T1 sequence (looked up): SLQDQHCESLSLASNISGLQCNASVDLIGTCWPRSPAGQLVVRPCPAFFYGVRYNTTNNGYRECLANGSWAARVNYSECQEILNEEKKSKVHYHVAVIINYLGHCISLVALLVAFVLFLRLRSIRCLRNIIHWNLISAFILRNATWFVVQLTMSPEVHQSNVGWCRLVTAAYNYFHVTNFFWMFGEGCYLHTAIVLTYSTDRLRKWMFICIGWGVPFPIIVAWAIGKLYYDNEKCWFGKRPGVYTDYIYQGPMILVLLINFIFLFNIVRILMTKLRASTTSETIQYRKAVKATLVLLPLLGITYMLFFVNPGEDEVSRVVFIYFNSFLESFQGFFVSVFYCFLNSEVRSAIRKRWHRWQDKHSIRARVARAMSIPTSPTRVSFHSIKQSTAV
# Method Notes: cell-based or functional assay
*1 amine or outer side, *2 acyl side, *3 side chain or, on linkers, in order; H or OH if unused. Where no end group is shown, it is not given here. Side-chain parts run from the residue outwards. [ ]: non-standard residue; d: D form. The star is where a group is joined. C20 diacid = O=C(O)CCCCCCCCCCCCCCCCCCC(=O)*; C18 diacid = O=C(O)CCCCCCCCCCCCCCCCC(=O)*; γGlu = O=C(O)[C@H](CCC(=O)[*:2])N[*:1]; εLys = N[C@@H](CCCCN[*:1])C(=O)[*:2]; NMeI = CC[C@H](C)[C@H](NC)C(=O)O; pGlu = O=C1CC[C@@H](C(=O)O)N1; αMeL = CC(C)C[C@](C)(N)C(=O)O; AEEA = NCCOCCOCC(=O)O; Aib = CC(C)(N)C(=O)O; Ahx = NCCCCCC(=O)O; βAla = NCCC(=O)O
Items are presented alongside their recorded hCRHR1 cAMP EC50.

Solved entries (count: 3):
Binder	Measure	Result
[γGlu]GPSIVTS[αMeL]D[dV]PI[Aib][αMeL]LQIKLEQERAEKARQQAK([AEEA-AEEA-γGlu-C20 diacid])ENTEILAQV-NH2 [polypeptide comprising SEQ ID NO:45]	hCRHR1 cAMP EC50	3.7 µM
Ac-GSPSIVTS[αMeL]DVPT[Aib][αMeL]LQKILEQERAEKARQQAK([γGlu-εLys-γGlu-εLys-C20 diacid])EAAEILAQV-NH2 [polypeptide comprising SEQ ID NO:18]	hCRHR1 cAMP EC50	> 10 µM
Ac-GSPSIVTS[αMeL]DVPT[Aib][αMeL]LQKILEQERAEKARQQAK([Gly-βAla-βAla-βAla-γGlu-C20 diacid])EAAEILAQV-NH2 [polypeptide comprising SEQ ID NO:7]	hCRHR1 cAMP EC50	> 10 µM

Given item Ac-GSPSIVTS[αMeL]DVPT[Aib][αMeL]LQKILEQERAEKARQQAK([γGlu-AEEA-AEEA-εLys-C20 diacid])EAAEILAQV-NH2 [polypeptide comprising SEQ ID NO:17] , the value recorded as its hCRHR1 cAMP EC50 is > 10 µM

Given item [γGlu]GSPSIVTS[αMeL]DVPT[Aib][αMeL]LEKILEQERAEKARQQATEAAEILAQV-NH2 (not fully specified (residue 1, N-terminus)) [polypeptide comprising SEQ ID NO:52] , the value recorded as its hCRHR1 cAMP EC50 is 1.5 µM

Given item [pGlu]GSPSGIVTS[αMeL]DVPT[Aib][αMeL]LQKILEQERAEKARQQAKEAAEILAQV-NH2 [polypeptide comprising SEQ ID NO:23] , the value recorded as its hCRHR1 cAMP EC50 is > 10 µM

Given item Ac-PPPIVTS[αMeL]D[dV]PT[Aib][αMeL]LQKLLEQERAEKARQQAK([γGlu-AEEA-εLys-C20 diacid])EAAEILAQV-NH2 [polypeptide comprising SEQ ID NO:47] , the value recorded as its hCRHR1 cAMP EC50 is 2.3 µM

Given item Ac-GSPSIVTS[αMeL]DVPT[Aib][αMeL]LQKILEQERAEKARQQAK([AEEA-KEKEKE-γGlu-C20 diacid])EAAEILAQV-NH2 [polypeptide comprising SEQ ID NO:9] , the value recorded as its hCRHR1 cAMP EC50 is > 10 µM

Given item Ac-GSPSIVTS[αMeL]DVPT[Aib][αMeL]LQKILEQERAEKARQQAK([γGlu-AEEA-εLys-C20 diacid])EAAEILAQV-NH2 [polypeptide comprising SEQ ID NO:1] , the value recorded as its hCRHR1 cAMP EC50 is > 10 µM

Given item [NMeI]VLSLDVPIGLLQILLEQEKQEKEKQQAKTNAQILAQV-NH2 (not fully specified (residue 29)) [Reference compound SEQ ID NO:54] , the value recorded as its hCRHR1 cAMP EC50 is > 10 µM

Given item Ac-PPPIVTS[αMeL]DVPT[Aib][αMeL]LQKLLEQERAEKARQQAK([γGlu-AEEA-εLys-C20 diacid])EAAEILAQV-NH2 [polypeptide comprising SEQ ID NO:48] , the value recorded as its hCRHR1 cAMP EC50 is > 10 µM

Given item Ac-IVTS[αMeL]D[dV]PTG[αMeL]LQIKLEQERAEKARQQAKENTEILAQV-NH2 (not fully specified (residue 29)) [polypeptide comprising SEQ ID NO:37] , the value recorded as its hCRHR1 cAMP EC50 is 1.7 µM

Given item [γGlu]GSPSIVTS[αMeL]DVPT[Aib][αMeL]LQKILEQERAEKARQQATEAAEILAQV-NH2 (not fully specified (residue 1, N-terminus); also: Glu1 linked through its gamma-carboxyl to Gly2) [polypeptide comprising SEQ ID NO:26] , the value recorded as its hCRHR1 cAMP EC50 is > 10 µM

Given item Ac-GSPSIVTS[αMeL]DVPT[Aib][αMeL]LQKILEQERAEKARQQAK([γGlu-Pro-Lys-Glu-Ahx-C20 diacid])EAAEILAQV-NH2 [polypeptide comprising SEQ ID NO:11] , the value recorded as its hCRHR1 cAMP EC50 is > 10 µM

Given item Ac-GSPSIVTS[αMeL]DVPT[Aib][αMeL]LQKILEQERAEKARQQAK([γGlu-AEEA-εLys-C18 diacid])EAAEILAQV-NH2 [polypeptide comprising SEQ ID NO:21] , the value recorded as its hCRHR1 cAMP EC50 is > 10 µM

From: patent US20250163119A1
